Measured Fibrin % inhibition, listed per entry for reference.
System: fibrin-induced microglia activation
Test: Image-based assay of fibrin-induced microglia activation (HTS and dose response)
Type: cell-based, rat
Settings: primary microglia HTS, 10 μM, fibrin-stimulated, cell size >800 μm^2 as marker of activation
Where a name gives a salt, the structure may show the parent alone.

{"COMPOUND": "COC(=O)[C@@H]1[C@H]2C[C@H]3c4[nH]c5ccccc5c4CCN3C[C@@H]2CC[C@@H]1O [Yohimbine Hydrochloride]", "OUTPUT UNIT": "%", "Fibrin % inhibition": "−8"}
{"COMPOUND": "CC(C)C[C@H](NC(=O)[C@@H](Cc1c[nH]c2ccccc12)NC(=O)[C@H](Cc1ccc(O)cc1)NC(=O)[C@H](CO)NC(=O)[C@H](Cc1c[nH]c2ccccc12)NC(=O)[C@H](Cc1c[nH]cn1)NC(=O)[C@@H]1CCC(=O)N1)C(=O)N[C@@H](CCCNC(=N)N)C(=O)N1CCC[C@H]1C(=O)NCC(N)=O", "OUTPUT UNIT": "%", "Fibrin % inhibition": "−15"}
{"COMPOUND": "C[C@H](CCC(=O)O)[C@H]1CC[C@H]2[C@@H]3[C@@H](O)C[C@@H]4C[C@H](O)CC[C@]4(C)[C@H]3CC[C@]12C", "OUTPUT UNIT": "%", "Fibrin % inhibition": "−18"}
{"COMPOUND": "c1ccc(CC2=NCCN2)cc1", "OUTPUT UNIT": "%", "Fibrin % inhibition": "−90"}
{"COMPOUND": "CC1=C(CC(=O)O)c2cc(F)ccc2/C1=C\\c1ccc(S(C)(=O)=O)cc1", "OUTPUT UNIT": "%", "Fibrin % inhibition": "−27"}

###

Tested on: fibrin-induced microglia activation
Test: Image-based assay of fibrin-induced microglia activation (HTS and dose response)
Format: cell-based, rat
Conditions: Rattus norvegicus, Microglia, primary microglia HTS, fibrin stimulation; increased cell size (>800 μm^2) as marker of activation; read-out: Fibrin % inhibition
Counter-ions that a name gives are not always drawn.
Measured inhibition at 10 µM, listed per entry for reference.

{"COMPOUND": "Cc1cc(-c2ccccc2)nnc1NCCN1CCOCC1", "EXPERIMENTAL TARGET": "fibrin-induced microglia activation", "OUTPUT UNIT": "%", "inhibition at 10 µM": -22}
{"COMPOUND": "Nc1ccc(S(=O)(=O)Nc2cnc3ccccc3n2)cc1 [Sulfaquinoxaline sodium, reference compound]", "EXPERIMENTAL TARGET": "fibrin-induced microglia activation", "OUTPUT UNIT": "%", "inhibition at 10 µM": 106}
{"COMPOUND": "COCCc1ccc(OCC(O)CNC(C)C)cc1 (stereo not shown)", "EXPERIMENTAL TARGET": "fibrin-induced microglia activation", "OUTPUT UNIT": "%", "inhibition at 10 µM": 4}
{"COMPOUND": "CC(=O)Oc1cccc(C)c1 [Meta-cresyl Acetate]", "EXPERIMENTAL TARGET": "fibrin-induced microglia activation", "OUTPUT UNIT": "%", "inhibition at 10 µM": -7}
{"COMPOUND": "O=C1CN=C(c2ccccc2)c2cc([N+](=O)[O-])ccc2N1", "EXPERIMENTAL TARGET": "fibrin-induced microglia activation", "OUTPUT UNIT": "%", "inhibition at 10 µM": -1}
{"COMPOUND": "COc1cccc2c1C(=O)c1c(O)c3c(c(O)c1C2=O)C[C@@](O)(C(=O)CO)C[C@@H]3O[C@H]1C[C@H](N)[C@H](O)[C@H](C)O1", "EXPERIMENTAL TARGET": "fibrin-induced microglia activation", "OUTPUT UNIT": "%", "inhibition at 10 µM": 106}
{"COMPOUND": "CCOC(=O)C1=C(COCCN)NC(C)=C(C(=O)OC)C1c1ccccc1Cl (stereo not shown)", "EXPERIMENTAL TARGET": "fibrin-induced microglia activation", "OUTPUT UNIT": "%", "inhibition at 10 µM": -29}
{"COMPOUND": "CN(C)C(=O)Oc1cccc([N+](C)(C)C)c1", "EXPERIMENTAL TARGET": "fibrin-induced microglia activation", "OUTPUT UNIT": "%", "inhibition at 10 µM": -15}
{"COMPOUND": "COc1c2occc2cc2ccc(=O)oc12", "EXPERIMENTAL TARGET": "fibrin-induced microglia activation", "OUTPUT UNIT": "%", "inhibition at 10 µM": -31}
{"COMPOUND": "CC1(C)O[C@@H]2C[C@H]3[C@@H]4C[C@H](F)C5=CC(=O)C=C[C@]5(C)[C@H]4[C@@H](O)C[C@]3(C)[C@]2(C(=O)CO)O1 [Flunisolide, reference compound]", "EXPERIMENTAL TARGET": "fibrin-induced microglia activation", "OUTPUT UNIT": "%", "inhibition at 10 µM": 104}
{"COMPOUND": "CCN(CC)C(=O)c1cccnc1 [Nikethamide]", "EXPERIMENTAL TARGET": "fibrin-induced microglia activation", "OUTPUT UNIT": "%", "inhibition at 10 µM": 12}
{"COMPOUND": "CC1=C(/C=C/C(C)=C/C=C/C(C)=C\\C(=O)O)C(C)(C)CCC1", "EXPERIMENTAL TARGET": "fibrin-induced microglia activation", "OUTPUT UNIT": "%", "inhibition at 10 µM": 112}
{"COMPOUND": "CC1(C)O[C@@H]2C[C@H]3[C@@H]4CCC5=CC(=O)C=C[C@]5(C)[C@H]4[C@@H](O)C[C@]3(C)[C@]2(C(=O)CO)O1 [Desonide]", "EXPERIMENTAL TARGET": "fibrin-induced microglia activation", "OUTPUT UNIT": "%", "inhibition at 10 µM": 108}
{"COMPOUND": "CNC(C)(C)Cc1ccccc1 [Mephentermine sulfate, reference compound]", "EXPERIMENTAL TARGET": "fibrin-induced microglia activation", "OUTPUT UNIT": "%", "inhibition at 10 µM": 60}
{"COMPOUND": "CN(Cc1cnc2nc(N)nc(N)c2n1)c1ccc(C(=O)N[C@@H](CCC(=O)O)C(=O)O)cc1 [Methotrexate]", "EXPERIMENTAL TARGET": "fibrin-induced microglia activation", "OUTPUT UNIT": "%", "inhibition at 10 µM": -32}
{"COMPOUND": "CO/N=C1\\C[C@]2(C[C@@H]3C[C@@H](C/C=C(\\C)C[C@@H](C)/C=C/C=C4\\CO[C@@H]5[C@H](O)C(C)=C[C@@H](C(=O)O3)[C@]45O)O2)O[C@H](/C(C)=C/C(C)C)[C@H]1C", "EXPERIMENTAL TARGET": "fibrin-induced microglia activation", "OUTPUT UNIT": "%", "inhibition at 10 µM": 1}
